- Test system: Wnt5a (protein binding on small-molecule microarray)
- experiment.notes: Wnt5a binders on small-molecule microarray, primary screen, biophysical, 635/667 nm fluorescence (AID 1142);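 further: fluorescence read at 667 nm with signal to noise per printed feature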
- assay.setup: 635 nm fluorescence, higher = more signal
outcome.measure: composite z-score
API note: the answer field is a bare number with no unit suffix.

| compound | system.name | composite z-score |
| --- | --- | --- |
| C=CCC(OC(C)=O)[C@@H]1[C@@H](N(Cc2ccc(-c3cccc(C(F)(F)F)c3)o2)C(=O)c2ccc(C)cc2)c2cc(OCCCO)ccc2N1C(=O)Cc1ccc(OC)cc1 (stereo not given in full) | Wnt5a (protein binding on small-molecule microarray) | 0.058 |
| C=C(COC)C(=O)CC[C@H](OC(C)=O)c1ccc(OCCO)cc1 | Wnt5a (protein binding on small-molecule microarray) | 0.632 |
| O=C1OCCC/C=C\[C@H]2OC34C=CCN(c5ccc6ccccc6c5)C(=O)[C@H]3N(CCCO)C(=O)[C@@H]4C12 (stereo not given in full) | Wnt5a (protein binding on small-molecule microarray) | -0.482 |

Reported composite z-score for "Cc1ccc(F)cc1S(=O)(=O)N[C@@H]1CCN(Cc2cccc3[nH]ccc23)C1" was 0.148

Reported composite z-score for "CCOC(=O)C1=C[C@@H](c2ccccc2)N(S(=O)(=O)c2ccc(C)cc2)[C@H]1c1ccccc1" was 0.202

Reported composite z-score for "CCOC(=O)C[C@H]1[C@H](OC(=O)c2ccccc2-c2ccccc2)[C@@H](NC(=O)c2ccccc2)c2cc(OCCCO)ccc2N1C(=O)c1ccccc1" was 0.309

Reported composite z-score for "COCCOC(=O)N1C(=O)[C@@]2(c3cc(C#CCC(C(=O)OC)C(=O)OC)ccc31)[C@H](c1ccc(O)cc1)N1[C@H](c3ccccc3)[C@H](c3ccccc3)OC(=O)[C@H]1[C@@H]2C(=O)NC[C@H](O)c1ccccc1" was 0.295

Reported composite z-score for COc1ccc(C(O)C2C=CC3C(=O)N(c4ccccc4)C(=O)C3N2Nc2ccc(C(C)C)cc2)c2ccccc12 (stereo not given) was 0.295

Reported composite z-score for "CCOC(=O)C=Cc1ccccc1O" was 0.0265

Reported composite z-score for "[N-]=[N+]=NC[C@H](Cc1ccccc1)NC(=O)c1ccccc1" was -0.022

Reported composite z-score for "COCCCNC(=O)[C@@]1(Sc2ccc(C)cc2)CC(=O)N(C(C)C)[C@@H]1c1ccc(CO)cc1I" was -0.0469

Reported composite z-score for CC1(C)C(=O)C(c2ccccc2)=C2CN3C(=O)N(CCc4ccccc4)C(=O)C3(Cc3ccc(F)cc3)C=C21 (stereo not given) was 0.198

Reported composite z-score for "C=CCNC(=O)[C@@H]1[C@H]2C(=O)O[C@H](c3ccccc3)[C@H](c3ccccc3)N2[C@H](c2ccc(O)cc2)[C@@]12C(=O)Nc1ccc(C#CCC(C(=O)OC)C(=O)OC)cc12" was 0.0513
